target: WEE1 (Homo sapiens, UniProt P30291+Q96SW2); construct: C-terminal ePL-tagged (DiscoverX, Fremont, CA) full-length WEE1 expression construct; expressed in transfected cells; host or cells: LentiX-HEK293T (Invitrogen), lentiviral transduction; co-expressing GSPT1-GN (G576N, lacking the first 158 amino acids); assay: WEE1-ePL degradation assay (LentiX-WEE1-ePL-GSPT1-ND cells, InCELL Hunter luminescence, 4 h); assay type: cell-based; conditions: 293T-LentiX WEE1-ePL cells, lower limit of the fit (Ymin=0 luciferase inhibitor, Ymax DMSO control)
measured.property: 293T-LentiX WEE1-ePL Degradation 4 hr (Ymin)

Known 293T-LentiX WEE1-ePL Degradation 4 hr (Ymin) results, listed for orientation:
INSERT INTO results (compound, assay_result) VALUES
  ('O=C1CC[C@H](N2Cc3cc(O[C@H]4CCN(Cc5cc6cnc(N7CCOCC7)nc6cc5F)C4)ccc3C2=O)C(=O)N1', 36.02),
  ('C[C@@H]1CN(Cc2cc(F)c3nc([C@@H]4CCOC4)ccc3c2)C[C@H]1Oc1ccc2c(c1)CN([C@H]1CCC(=O)NC1=O)C2=O', 26.17),
  ('O=C1CCC(N2Cc3cc(O[C@@H]4CN(Cc5ccc6nc(C7CCOCC7)ccc6c5)C[C@H]4C(F)(F)F)ccc3C2=O)C(=O)N1 (stereo partly shown)', 35.15),
  ('O=C1CCC(N2Cc3cc(O[C@@H]4CCN(c5cnccn5)C4)ccc3C2=O)C(=O)N1 (stereo partly shown)', 110),
  ('COC[C@H]1CCCC[C@@H]1c1ccc2cc(CN3CC[C@H](Oc4ccc5c(c4)CN(C4CCC(=O)NC4=O)C5=O)C3)ccc2n1 (stereo partly shown)', 21.7);

P. COC[C@@H]1CCC[C@@H](c2ccc3cc(CN4CC[C@H](Oc5ccc6c(c5)CN(C5CCC(=O)NC5=O)C6=O)C4)ccc3n2)C1 (stereo partly shown)
Q. O=C1CCC(N2Cc3cc(O[C@@H]4CCN(Cc5c[nH]c6ncccc56)C4)ccc3C2=O)C(=O)N1 (stereo partly shown)
Data request: 293T-LentiX WEE1-ePL Degradation 4 hr (Ymin) comparison. Which is larger, P or Q ? Record your answer as the label of the chosen record.
Data returned: Q

---

Target: WEE1 (Homo sapiens, UniProt P30291+Q96SW2)
Construct: C-terminal ePL-tagged (DiscoverX, Fremont, CA) full-length WEE1 expression construct; expressed in transfected cells; host or cells: LentiX-HEK293T (Invitrogen), lentiviral transduction; co-expressing GSPT1-GN (G576N, lacking the first 158 amino acids)
Assay: WEE1-ePL degradation assay (LentiX-WEE1-ePL-GSPT1-ND cells, InCELL Hunter luminescence, 4 h)
Format: cell-based
Conditions: 293T-LentiX WEE1-ePL cells, lower limit of the fit (0 = luciferase inhibitor, Ymax = DMSO control)
Description: To generate LentiX-WEE1-ePL-GSPT1-ND cells for the WEE1 degradation assay, LentiX-HEK293T (Invitrogen) were transduced by lentivirus with a C-terminal ePL-tagged (DiscoverX, Fremont, CA) full-length WEE1 expression construct. […] Cells were selected and maintained in complete DMEM media (DMEM, 10% Heat Inactivated FBS, 400 μg/mL Geneticin, and 1 μg/mL puromycin at 37 C and 5% CO2). Cells were passaged every 3-4 days by reseeding 1×10^6 cells in a T150 flask. […]
measured.property: 293T-LentiX WEE1-ePL Degradation 4 hr (Ymin)

Known 293T-LentiX WEE1-ePL Degradation 4 hr (Ymin) results, listed for orientation:
INSERT INTO assay_data (compound, target_under_test, assay_result) VALUES
  ('CO[C@H]1CCC[C@H](c2ccc3cc(CN4CC[C@H](Oc5ccc6c(c5)CN(C5CCC(=O)NC5=O)C6=O)C4)ccc3n2)C1 (stereo partly shown)', 'WEE1 (Homo sapiens, UniProt P30291+Q96SW2)', 30.5),
  ('O=C1CCC(N2Cc3cc(O[C@H]4CCN(Cc5ccc6nc([C@@H]7CCOC7)ccc6c5)C4)ccc3C2=O)C(=O)N1 (stereo partly shown)', 'WEE1 (Homo sapiens, UniProt P30291+Q96SW2)', 30),
  ('CO[C@@H]1CCCN(c2ccc3cc(CN4CC[C@H](Oc5ccc6c(c5)CN(C5CCC(=O)NC5=O)C6=O)C4)ccc3n2)C1 (stereo partly shown)', 'WEE1 (Homo sapiens, UniProt P30291+Q96SW2)', 34),
  ('O=C1CCC(N2Cc3cc(O[C@H]4CCN(Cc5ccc6nc(N7CCC78COC8)ncc6c5)C4)ccc3C2=O)C(=O)N1 (stereo partly shown)', 'WEE1 (Homo sapiens, UniProt P30291+Q96SW2)', 37),
  ('O=C1CCC(N2Cc3cc(O[C@H]4CCN(Cc5ccc6ncncc6c5)C4)ccc3C2=O)C(=O)N1 (stereo partly shown)', 'WEE1 (Homo sapiens, UniProt P30291+Q96SW2)', 36.57);

A. N#Cc1ccc2cc(CN3C[C@@H](Oc4ccc5c(c4)CN(C4CCC(=O)NC4=O)C5=O)C(F)(F)C3)ccc2n1 (stereo partly shown)
B. COCc1ccc2nc(CN3CC[C@H](Oc4ccc5c(c4)CN(C4CCC(=O)NC4=O)C5=O)C3)ccc2c1 (stereo partly shown)
Data request: Identify the item whose 293T-LentiX WEE1-ePL Degradation 4 hr (Ymin) is the smaller number: A or B Record your answer as the label of the chosen record.
Data returned: A
(A: 30.83, B: 46)

a. CO[C@@H]1CCN(c2ccc3cc(CN4CC[C@H](Oc5ccc6c(c5)CN(C5CCC(=O)NC5=O)C6=O)C4)ccc3n2)C1 (stereo partly shown)
b. NCc1ccc(COc2cccc(CN3CC[C@H](Oc4ccc5c(c4)CN(C4CCC(=O)NC4=O)C5=O)C3)c2)cc1 (stereo partly shown)
Data request: 293T-LentiX WEE1-ePL Degradation 4 hr (Ymin) comparison. Which is larger, a or b ? Record your answer as the label of the chosen record.
Data returned: b

a. O=C1CCC(N2Cc3ccc(O[C@H]4CCN(Cc5cnc6ccccc6c5)C4)cc3C2=O)C(=O)N1 (stereo partly shown)
b. O=C1CCC(N2Cc3cc(O[C@H]4CCN(Cc5ccc6nc(N7CC[C@]78CCOC8)ccc6c5)C4)ccc3C2=O)C(=O)N1 (stereo partly shown)
c. Cc1ccc2cc(CN3CC[C@H](Oc4ccc5c(c4)CN(C4CCC(=O)NC4=O)C5=O)[C@@H]3C)ccc2n1 (stereo partly shown)
Data request: Ascending by 293T-LentiX WEE1-ePL Degradation 4 hr (Ymin), please: list the compounds accordingly. Lab note: record answer as labels in requested order.
Data returned: a, b, c
(a: 27.98, b: 42, c: 99.5)

I. N#Cc1ccc2cc(CN3CC[C@H](Oc4ccc5c(c4)CN(C4CCC(=O)NC4=O)C5=O)C3)ccc2n1 (stereo partly shown)
II. O=C1CCC(N2Cc3cc(O[C@H]4CCN(Cc5ccnc6c5CCCO6)C4)ccc3C2=O)C(=O)N1 (stereo partly shown)
Data request: Identify the item whose 293T-LentiX WEE1-ePL Degradation 4 hr (Ymin) is the smaller number: I or II Record your answer as the label of the chosen record.
Data returned: I

P. O=C1CCC(N2Cc3cc(O[C@H]4CCN(Cc5ccc6nc(N7CC[C@H](O)C7)ccc6c5)C4)ccc3C2=O)C(=O)N1 (stereo partly shown)
Q. O=C1CCC(N2Cc3cc(O[C@H]4CCN(Cc5ccnc6ncccc56)C4)ccc3C2=O)C(=O)N1 (stereo partly shown)
Data request: 293T-LentiX WEE1-ePL Degradation 4 hr (Ymin) comparison. Which is larger, P or Q ? Record your answer as the label of the chosen record.
Data returned: Q

1. O=C1CCC(N2Cc3cc(O[C@H]4CCN(Cc5cc6ccc([C@H]7CCOC7)cc6cn5)C4)ccc3C2=O)C(=O)N1 (stereo partly shown)
2. O=C1CCC(N2Cc3cc(O[C@H]4CCN(Cc5ccc6nc(N7CCS(=O)(=O)CC7)ccc6c5)C4)ccc3C2=O)C(=O)N1 (stereo partly shown)
Data request: Identify the item whose 293T-LentiX WEE1-ePL Degradation 4 hr (Ymin) is the smaller number: 1 or 2 Record your answer as the label of the chosen record.
Data returned: 1

I. C[C@@H]1CN(Cc2ccc3nc([C@@H]4CCOC(C)(C)C4)ccc3c2)C[C@H]1Oc1ccc2c(c1)CN(C1CCC(=O)NC1=O)C2=O (stereo partly shown)
II. CNc1ncc2cc(CN3CC[C@H](Oc4ccc5c(c4)CN(C4CCC(=O)NC4=O)C5=O)C3)ccc2n1 (stereo partly shown)
Data request: 293T-LentiX WEE1-ePL Degradation 4 hr (Ymin) comparison. Which is larger, I or II ? Record your answer as the label of the chosen record.
Data returned: II

---

target: WEE1 (Homo sapiens, UniProt P30291+Q96SW2); construct: C-terminal ePL-tagged (DiscoverX, Fremont, CA) full-length WEE1 expression construct; expressed in transfected cells; host or cells: LentiX-HEK293T (Invitrogen), lentiviral transduction; co-expressing GSPT1-GN (G576N, lacking the first 158 amino acids); experiment: WEE1-ePL degradation assay (LentiX-WEE1-ePL-GSPT1-ND cells, InCELL Hunter luminescence, 4 h); format: cell-based; details: 293T-LentiX WEE1-ePL cells, read-out: 293T-LentiX WEE1-ePL Degradation 4 hr (EC50)
measured.property: DC50 (nM)

INSERT INTO results (compound, assay_result) VALUES
  ('C[C@@H]1CN(Cc2ccc3nc([C@@H]4CCOC(C)(C)C4)ccc3c2)C[C@H]1Oc1ccc2c(c1)CN([C@H]1CCC(=O)NC1=O)C2=O', 1.15);

P. O=C1CCC(N2Cc3cc(O[C@H]4CCN(Cc5ccc6c(c5)NC(=O)CO6)C4)ccc3C2=O)C(=O)N1 (stereo partly shown)
Q. CN(C)c1ccc2cc(CN3CC[C@H](Oc4ccc5c(c4)CN(C4CCC(=O)NC4=O)C5=O)C3)ccc2n1 (stereo partly shown)
Data request: Identify the item whose DC50 is the smaller number: P or Q Record your answer as the label of the chosen record.
Data returned: Q

1. CO[C@H]1CCCC[C@@H]1c1ccc2cc(CN3CC[C@H](Oc4ccc5c(c4)CN(C4CCC(=O)NC4=O)C5=O)C3)ccc2n1 (stereo partly shown)
2. O=C1CCC(N2Cc3cc(O[C@@H]4CN(Cc5ccc6nc(C7CCOCC7)ccc6c5)C[C@H]4F)ccc3C2=O)C(=O)N1 (stereo partly shown)
Data request: Identify the item whose DC50 is the smaller number: 1 or 2 Record your answer as the label of the chosen record.
Data returned: 1
(1: 4.52 nM, 2: 14.6 nM)
